Origin of measurements: the supplement of paper PMC11061612

system: COR-L105 (Lung Adenocarcinoma); assay: combination Emax (second highest fraction inhibited in the dose matrix, 72 h); higher = more inhibition; extreme values may be limits of the assay
Label scheme for combination Emax: lower than 0.4 is not fulfilled, 0.4 and above is fulfilled.

Consider the worked cases shown below.
compound: CN(C)CCCOc1ccc(-c2ccc3ncc4c(c3c2)n(C2CCOCC2)c(=O)n4C)cn1 [AZD0156] + C=CCn1c(=O)c2cnc(Nc3ccc(N4CCN(C)CC4)cc3)nc2n1-c1cccc(C(C)(C)O)n1 [AZD1775] (first compound max 1 µM, partner max 1 µM)
group label: fulfilled
//
compound: C[C@@H]1COCCN1c1cc(C2([S@](C)(=N)=O)CC2)nc(-c2ccnc3[nH]ccc23)n1 [AZD6738] + O=C(c1cc(Cc2n[nH]c(=O)c3ccccc23)ccc1F)N1CCN(C(=O)C2CC2)CC1 [Olaparib] (first compound max 10 µM, 7x7, partner max 10 µM)
group label: fulfilled
//
compound: NC1(C(=O)N[C@@H](CCO)c2ccc(Cl)cc2)CCN(c2ncnc3[nH]ccc23)CC1 [Capivasertib] + CCN(CCO)CCCOc1ccc2c(Nc3cc(CC(=O)Nc4cccc(F)c4)[nH]n3)ncnc2c1 [AZD2811] (first compound max 10 µM, 7x7, partner max 1 µM)
group label: not fulfilled
//
compound: Cc1cc2ncnn2cc1Nc1ncc2c(n1)n(C1CCOCC1)c(=O)n2C [AZD7648] + COc1cc([C@@H]2c3cc4c(cc3[C@@H](O[C@@H]3O[C@@H]5CO[C@@H](C)O[C@H]5[C@H](O)[C@H]3O)[C@H]3COC(=O)[C@H]23)OCO4)cc(OC)c1O [Etoposide] (first compound max 10 µM, 7x7, partner max 10 µM)
group label: not fulfilled
//
compound: CCN(CCO)CCCOc1ccc2c(Nc3cc(CC(=O)Nc4cccc(F)c4)[nH]n3)ncnc2c1 [AZD2811] + O=C(c1cc(Cc2n[nH]c(=O)c3ccccc23)ccc1F)N1CCN(C(=O)C2CC2)CC1 [Olaparib] (first compound max 1 µM, 7x7, partner max 10 µM)
group label: not fulfilled

Next up:
Decide: is the reported value of combination Emax for CN(CCO)CC[C@H](CSc1ccccc1)Nc1ccc(S(=O)(=O)NC(=O)c2ccc(N3CCC([C@@H](O)c4ccccc4-c4ccc(Cl)cc4)CC3)cc2)cc1S(=O)(=O)C(F)(F)F [AZD4320] + CN(C)CCCOc1ccc(-c2ccc3ncc4c(c3c2)n(C2CCOCC2)c(=O)n4C)cn1 [AZD0156] (first compound max 1 µM, 7x7, partner max 1 µM) equal to or greater than 0.4?
not fulfilled

* * *

tested on: OCI-M1 (Acute Myeloid Leukemia); assay: combination Emax (second highest fraction inhibited in the dose matrix, 72 h); higher = more inhibition; extreme values may be limits of the assay
measured parameter: combination Emax
Give your answer as a number; write no unit.

Example entries and their recorded answers appear below.
molecule: C=CCn1c(=O)c2cnc(Nc3ccc(N4CCN(C)CC4)cc3)nc2n1-c1cccc(C(C)(C)O)n1 [AZD1775] + O=C(c1cc(Cc2n[nH]c(=O)c3ccccc23)ccc1F)N1CCN(C(=O)C2CC2)CC1 [Olaparib] (first compound max 1 µM, partner max 10 µM)
quantitative result: 0.869
//
molecule: Cc1c2c(nn1C)CSCc1cc(n(C)n1)CSc1cc(c3ccccc3c1)OCCCc1c(C(=O)O)n(C)c3c-2c(Cl)ccc13 [AZD5991] + C[C@@H](Nc1cc(F)cc(F)c1)c1cc(C(=O)N(C)C)cc2c(=O)cc(N3CCOCC3)oc12 [AZD8186] (first compound max 1 µM, 7x7, partner max 3 µM)
quantitative result: 0.0662
//
molecule: CCc1c2c(nc3ccc(O)cc13)-c1cc3c(c(=O)n1C2)COC(=O)[C@]3(O)CC [SN-38] + CN(C)CCCOc1ccc(-c2ccc3ncc4c(c3c2)n(C2CCOCC2)c(=O)n4C)cn1 [AZD0156] (first compound max 0.3 µM, 7x7, partner max 1 µM)
quantitative result: 0.991

Please turn your attention to the following entry.
Given the molecule COc1cccc(OCCCN)c1-c1cc(Nc2cnc(C#N)cn2)n[nH]1 [Prexasertib] + CN(C)CCCOc1ccc(-c2ccc3ncc4c(c3c2)n(C2CCOCC2)c(=O)n4C)cn1 [AZD0156] (first compound max 1 µM, 7x7, partner max 1 µM) , what is its reported combination Emax?
0.951
